Target: T1, TNFR1 (Homo sapiens, UniProt P19438)
T1 chain: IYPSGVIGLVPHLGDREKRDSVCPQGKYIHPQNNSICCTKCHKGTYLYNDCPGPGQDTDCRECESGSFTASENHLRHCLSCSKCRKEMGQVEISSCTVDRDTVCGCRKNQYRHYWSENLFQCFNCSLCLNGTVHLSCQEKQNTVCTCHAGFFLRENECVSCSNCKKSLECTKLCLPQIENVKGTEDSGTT
Experiment: yeast display SC50
readout name: apparent Kd (screen) (nM)

Consider the worked cases shown below.
binder	readout name	unit tag	test value
A15K (designed binder) MTLQELLREEALRRKEAEAFRYALELLAEKFPEQKEYLLDLAEEIESQIRSLSGVDVEDVRKFLDKEWAWVKELLAEHPAELAEVEAARAARLAELRAEVEAKVAA	apparent Kd (screen)	nM	0.49
R61A (designed binder) MTLQELLREEALRRAEAEAFRYALELLAEKFPEQKEYLLDLAEEIESQIRSLSGVDVEDVAKFLDKEWAWVKELLAEHPAELAEVEAARAARLAELRAEVEAKVAA	apparent Kd (screen)	nM	0.869
E9C (designed binder) MTLQELLRCEALRRAEAEAFRYALELLAEKFPEQKEYLLDLAEEIESQIRSLSGVDVEDVRKFLDKEWAWVKELLAEHPAELAEVEAARAARLAELRAEVEAKVAA	apparent Kd (screen)	nM	0.405

I. E86L (designed binder) MTLQELLREEALRRAEAEAFRYALELLAEKFPEQKEYLLDLAEEIESQIRSLSGVDVEDVRKFLDKEWAWVKELLAEHPAELAEVLAARAARLAELRAEVEAKVAA
II. A94I (designed binder) MTLQELLREEALRRAEAEAFRYALELLAEKFPEQKEYLLDLAEEIESQIRSLSGVDVEDVRKFLDKEWAWVKELLAEHPAELAEVEAARAARLIELRAEVEAKVAA
Req: Determine, for I and II , which has the greater value of apparent Kd (screen). Use the label to indicate which entry you chose.
Resp: I

a. A83G (designed binder) MTLQELLREEALRRAEAEAFRYALELLAEKFPEQKEYLLDLAEEIESQIRSLSGVDVEDVRKFLDKEWAWVKELLAEHPAELGEVEAARAARLAELRAEVEAKVAA
b. D56F (designed binder) MTLQELLREEALRRAEAEAFRYALELLAEKFPEQKEYLLDLAEEIESQIRSLSGVFVEDVRKFLDKEWAWVKELLAEHPAELAEVEAARAARLAELRAEVEAKVAA
c. D65L (designed binder) MTLQELLREEALRRAEAEAFRYALELLAEKFPEQKEYLLDLAEEIESQIRSLSGVDVEDVRKFLLKEWAWVKELLAEHPAELAEVEAARAARLAELRAEVEAKVAA
Req: Put the entries in order of apparent Kd (screen), starting with the largest number. Field: ranking. Enter the labels in the order requested.
Resp: b, c, a

I. E5N (designed binder) MTLQNLLREEALRRAEAEAFRYALELLAEKFPEQKEYLLDLAEEIESQIRSLSGVDVEDVRKFLDKEWAWVKELLAEHPAELAEVEAARAARLAELRAEVEAKVAA
II. E99C (designed binder) MTLQELLREEALRRAEAEAFRYALELLAEKFPEQKEYLLDLAEEIESQIRSLSGVDVEDVRKFLDKEWAWVKELLAEHPAELAEVEAARAARLAELRACVEAKVAA
III. E10F (designed binder) MTLQELLREFALRRAEAEAFRYALELLAEKFPEQKEYLLDLAEEIESQIRSLSGVDVEDVRKFLDKEWAWVKELLAEHPAELAEVEAARAARLAELRAEVEAKVAA
IV. A88P (designed binder) MTLQELLREEALRRAEAEAFRYALELLAEKFPEQKEYLLDLAEEIESQIRSLSGVDVEDVRKFLDKEWAWVKELLAEHPAELAEVEAPRAARLAELRAEVEAKVAA
Req: In this exercise, place the 4 binders in ascending sequence of their recorded apparent Kd (screen). // list labels; follow requested order
Resp: I, II, III, IV
(I: 0.446 nM, II: 0.653 nM, III: 1.27 nM, IV: 2.05 nM)
